FYI, the data here is from patent US20070043108A1.

Consider the following compounds; for each one, report its Kd.
target: ERα (Rattus norvegicus); construct: Full length rat ERα expression vector (pcDNA-ERα; RH Price UCSF); assay: Competition binding of equol enantiomers with [3H]E2 for in vitro translated ERα; settings: competition with [3H]E2, in vitro translated ER
Sequence (P06211 whole entry): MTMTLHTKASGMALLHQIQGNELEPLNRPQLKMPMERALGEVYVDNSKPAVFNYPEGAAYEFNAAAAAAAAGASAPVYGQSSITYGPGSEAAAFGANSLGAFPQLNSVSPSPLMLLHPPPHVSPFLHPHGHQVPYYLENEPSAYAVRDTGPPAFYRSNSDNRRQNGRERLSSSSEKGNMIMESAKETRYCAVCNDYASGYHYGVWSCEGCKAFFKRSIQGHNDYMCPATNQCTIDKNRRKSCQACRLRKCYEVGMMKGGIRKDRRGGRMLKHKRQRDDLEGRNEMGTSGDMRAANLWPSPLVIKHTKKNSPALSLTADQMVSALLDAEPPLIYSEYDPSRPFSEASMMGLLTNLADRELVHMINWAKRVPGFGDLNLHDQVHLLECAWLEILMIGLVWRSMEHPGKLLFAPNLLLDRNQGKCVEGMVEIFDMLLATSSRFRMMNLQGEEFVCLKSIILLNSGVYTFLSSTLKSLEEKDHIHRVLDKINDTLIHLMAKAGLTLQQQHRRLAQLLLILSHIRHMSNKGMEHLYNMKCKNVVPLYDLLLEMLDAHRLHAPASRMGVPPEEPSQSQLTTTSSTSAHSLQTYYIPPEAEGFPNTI
One number for each entry, in µM.

## Task Endpoint output: Kd of Oc1ccc([C@@H]2COc3cc(O)ccc3C2)cc1 . Value?
## Result 0.0274

Let us move to another entry and its Kd.
## Task Endpoint output: Kd of Oc1ccc([C@H]2COc3cc(O)ccc3C2)cc1 . Value?
## Result 0.00641

* * *

target: ERβ (Rattus norvegicus); construct: Full length rat ERα expression vector (pcDNA-ERα; RH Price UCSF) and ERβ expression vector (pcDNA-ERβ; T A Brown, Pfizer; made in house; host or cells: TnT-coupled rabbit reticulocyte lysate in vitro translation (Promega); test: Competition binding of equol enantiomers with [3H]E2 for in vitro translated ERβ; details: competition with [3H]E2, in vitro translated ER
Sequence (Q62986 whole entry): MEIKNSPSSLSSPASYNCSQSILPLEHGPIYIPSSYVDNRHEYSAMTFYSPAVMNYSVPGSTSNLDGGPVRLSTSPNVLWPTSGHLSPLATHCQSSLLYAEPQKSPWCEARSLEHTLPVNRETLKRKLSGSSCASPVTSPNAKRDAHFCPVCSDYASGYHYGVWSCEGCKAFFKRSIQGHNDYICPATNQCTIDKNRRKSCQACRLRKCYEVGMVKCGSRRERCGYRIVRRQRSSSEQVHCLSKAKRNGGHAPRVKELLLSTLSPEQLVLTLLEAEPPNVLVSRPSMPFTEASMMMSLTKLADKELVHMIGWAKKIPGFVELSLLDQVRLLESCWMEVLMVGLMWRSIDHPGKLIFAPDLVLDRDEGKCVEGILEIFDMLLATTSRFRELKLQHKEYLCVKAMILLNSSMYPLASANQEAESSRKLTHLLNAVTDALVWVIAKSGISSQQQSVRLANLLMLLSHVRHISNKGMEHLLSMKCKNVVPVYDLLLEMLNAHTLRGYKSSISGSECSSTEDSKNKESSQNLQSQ
Consider the following compounds; for each one, report its Kd.
Give bare numbers, in nM.

## Task Endpoint output: Kd of Oc1ccc([C@H]2COc3cc(O)ccc3C2)cc1 . Value?
## Result 0.73

Let us move to another entry and its Kd.
## Task Endpoint output: Kd of Oc1ccc([C@@H]2COc3cc(O)ccc3C2)cc1 . Value?
## Result 15.4
